B1: mRNA-splicing (parent)
chain: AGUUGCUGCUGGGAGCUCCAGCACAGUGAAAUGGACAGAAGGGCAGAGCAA

Variants of: B1
ASSAY_NAME: exon inclusion enrichment index; higher = more inclusion; WT1 exon 5 minigene, HEK293
Label Condition met for high-side exon inclusion enrichment index (at or above 2) and Condition not met for low-side exon inclusion enrichment index (below it).

Worked set:
C6A U7A C9A U10A G21A C22U	Condition not met
C6A U7A C9A U10A G28C	Condition not met
G5C C6U G8C C9U U10C A39G A40G	Condition not met
G5A C6G U7A C9A	Condition not met
G5C C6G U7C U10C G34C A35C	Condition not met

Has G5C C6U G8C C9U U10C G41C G42C a recorded exon inclusion enrichment index greater than or equal to 2?
Condition met

Same question for G5C C6G U7C U10C A31U U32C please.
Condition met

Same question, G5C C6G U7C U10C A14U G15C this time
Condition not met

Record: G5C C6G U7C U10C C24U
Condition not met

Similarly, G5C C6A G8A U10A ?
Condition not met
